Cited source for all entries: ChEMBL document CHEMBL5512660

assayDetails: Selectivity index, ratio of CC50 for human HEL cells to EC50 for thymidine-kinase deficient acyclovir-resistant human herpes virus type 1
Assay type: toxicity
reportedConditions: read-out: Selectivity Index
valueKind: selectivity ratio
One number for each entry.

Given the compound CCCCCCCCCCCCCCCCOCCCOP(=O)(C/C=C(\COC(C)=O)COc1cc(N)nc(N)n1)OCOC(=O)OC(C)C (stereo unspecified) , what is its reported selectivity ratio?
273

---

assayDetails: Selectivity index, ratio of CC50 for human HEL cells to EC50 for thymidine-kinase deficient acyclovir-resistant Varicella zoster virus
Type: toxicity
reportedConditions: read-out: Selectivity Index
valueKind: selectivity ratio
Answers are plain numbers.

Given the molecule CCCCCCCCCCCCCCCCOCCCOP(=O)(C/C=C(\COC(C)=O)COc1cc(N)nc(N)n1)OCOC(=O)OC(C)C (stereo unspecified) , what is its reported selectivity ratio?
129

---

System: Human alphaherpesvirus 3
assayDetails: Antiviral activity against thymidine-kinase deficient acyclovir-resistant Varicella zoster virus strain 07/1 infected in human HEL cells assessed as reduction in plaque formation measured after 3 days
Type: functional, organism-based
reportedConditions: Human alphaherpesvirus 3, 07/1, HEL, 72 h
Threshold check on EC50: strictly below 200 nM is True; on or above 200 nM is False.

CCCCCCCCCCCCCCCCOCCCOP(=O)(C/C=C/COc1cc(N)nc(N)n1)OCOC(=O)OC(C)C (stereo unspecified) :: False
CCCCCCCCCCCCCCCCOCCCOP(=O)(C/C=C(\COC(C)=O)COc1cc(N)nc(N)n1)OCOC(=O)OC(C)C (stereo unspecified) :: True
CC(C)(C)C(=O)OCOP(=O)(C/C=C/COc1cc(N)nc(N)n1)OCOC(=O)C(C)(C)C :: False
CC(=O)OC/C(=C\CP(=O)(OCOC(=O)OC(C)C)OCOC(=O)OC(C)C)COc1cc(N)nc(N)n1 :: False
CC(C)OC(=O)OCOP(=O)(C/C=C/COc1cc(N)nc(N)n1)OCOC(=O)OC(C)C :: False

Lab note: EC50 threshold 200 nM. Does this molecule come in strictly under it? CC(=O)OCC(=CCP(=O)(OCOC(=O)C(C)(C)C)OCOC(=O)C(C)(C)C)COc1cc(N)nc(N)n1
True

---

assayDetails: Cytotoxicity against human HEL cells assessed as microscopically detectable alterations in cell morphology measured after 24 hrs
Type: toxicity, cell-based
reportedConditions: read-out: MCC50
valueKind: MCC at 24 h

Use these answered entries as a reference point.
Nc1nc2c(ncn2COC(CO)CO)c(=O)[nH]1 :: > 350 µM
CC(C)(C)C(=O)OCOP(=O)(C/C=C/COc1cc(N)nc(N)n1)OCOC(=O)C(C)(C)C :: > 100 µM
CCCCCCCCCCCCCCCCOCCCOP(=O)(C/C=C/COc1cc(N)nc(N)n1)OCOC(=O)OC(C)C (stereo not given) :: 100 µM
CCCCCCCCCCCCCCCCOCCCOP(=O)(C/C=C(\COC(C)=O)COc1cc(N)nc(N)n1)OCOC(=O)OC(C)C (stereo not given) :: 100 µM
Nc1nc2c(ncn2COCCO)c(=O)[nH]1 :: > 300 µM
Nc1ccn(C[C@@H](CO)OCP(=O)(O)O)c(=O)n1 [CIDOFOVIR ANHYDROUS] :: > 350 µM
CC(=O)OCC(=CCP(=O)(OCOC(=O)C(C)(C)C)OCOC(=O)C(C)(C)C)COc1cc(N)nc(N)n1 :: 100 µM
CC(C)OC(=O)OCOP(=O)(C/C=C/COc1cc(N)nc(N)n1)OCOC(=O)OC(C)C :: > 100 µM
O=c1[nH]c(=O)n([C@H]2C[C@H](O)[C@@H](CO)O2)cc1/C=C/Br :: > 150 µM

Given the molecule CC(=O)OC/C(=C\CP(=O)(OCOC(=O)OC(C)C)OCOC(=O)OC(C)C)COc1cc(N)nc(N)n1 , what is its reported MCC at 24 h?
> 100 µM

---

Would you kindly list log10 of EC50 for each of these molecules?
System: Cytomegalovirus
assayDetails: Antiviral activity against human cytomegalovirus strain AD-169 infected in human HEL cells assessed as reduction in virus-induced cytopathic effect measured after 3 days
Format: functional, organism-based
reportedConditions: Human betaherpesvirus 5, AD-169, HEL, 72 h
Log scale reminder: EC50 in µM, then log10 taken.

Use these answered entries as a reference point.
Nc1nc2c(ncn2COC(CO)CO)c(=O)[nH]1 :: 0.88
CC(=O)OCC(=CCP(=O)(OCOC(=O)C(C)(C)C)OCOC(=O)C(C)(C)C)COc1cc(N)nc(N)n1 :: 0.93
CCCCCCCCCCCCCCCCOCCCOP(=O)(C/C=C(\COC(C)=O)COc1cc(N)nc(N)n1)OCOC(=O)OC(C)C (configuration not stated) :: -1.68
CC(C)OC(=O)OCOP(=O)(C/C=C/COc1cc(N)nc(N)n1)OCOC(=O)OC(C)C :: 1.65
Nc1ccn(C[C@@H](CO)OCP(=O)(O)O)c(=O)n1 [CIDOFOVIR ANHYDROUS] :: -0.14

For each listed entry, give its log10 of EC50.
1. CCCCCCCCCCCCCCCCOCCCOP(=O)(C/C=C/COc1cc(N)nc(N)n1)OCOC(=O)OC(C)C (configuration not stated)
2. CC(C)(C)C(=O)OCOP(=O)(C/C=C/COc1cc(N)nc(N)n1)OCOC(=O)C(C)(C)C

1: 0.85; 2: 1.65

---

Tested on: Human alphaherpesvirus 1
assayDetails: Antiviral activity against thymidine-kinase expressing human herpes virus type 1 KOS infected in human HEL cells assessed as reduction in plaque formation measured after 3 days
Type: functional, organism-based
reportedConditions: Human alphaherpesvirus 1, KOS, 72 h
Threshold check on EC50: strictly below 4000 nM is condition met; on or above 4000 nM is condition not met.

Reference set, count: 3
CCCCCCCCCCCCCCCCOCCCOP(=O)(C/C=C/COc1cc(N)nc(N)n1)OCOC(=O)OC(C)C (stereo unspecified) :: condition not met
CC(C)OC(=O)OCOP(=O)(C/C=C/COc1cc(N)nc(N)n1)OCOC(=O)OC(C)C :: condition met
CC(C)(C)C(=O)OCOP(=O)(C/C=C/COc1cc(N)nc(N)n1)OCOC(=O)C(C)(C)C :: condition not met

Lab note: EC50 threshold 4000 nM. Does this molecule come in strictly under it? CC(=O)OC/C(=C\CP(=O)(OCOC(=O)OC(C)C)OCOC(=O)OC(C)C)COc1cc(N)nc(N)n1
condition met

// query: CC(=O)OCC(=CCP(=O)(OCOC(=O)C(C)(C)C)OCOC(=O)C(C)(C)C)COc1cc(N)nc(N)n1
condition met

// query: CCCCCCCCCCCCCCCCOCCCOP(=O)(C/C=C(\COC(C)=O)COc1cc(N)nc(N)n1)OCOC(=O)OC(C)C (stereo unspecified)
condition met

---

Would you kindly list CC50 at 24 h for each of these compounds?
assayDetails: Cytostatic activity against human HEL cells assessed as reduction in cell growth measured after 24 hrs
Format: toxicity, cell-based
Numbers only, in µM.

Use these answered entries as a reference point.
CC(=O)OCC(=CCP(=O)(OCOC(=O)C(C)(C)C)OCOC(=O)C(C)(C)C)COc1cc(N)nc(N)n1 :: 2.03
CC(=O)OC/C(=C\CP(=O)(OCOC(=O)OC(C)C)OCOC(=O)OC(C)C)COc1cc(N)nc(N)n1 :: 15.4
Nc1nc2c(ncn2COC(CO)CO)c(=O)[nH]1 :: 130
Nc1ccn(C[C@@H](CO)OCP(=O)(O)O)c(=O)n1 [CIDOFOVIR ANHYDROUS] :: 64

Given the compound CC(C)(C)C(=O)OCOP(=O)(C/C=C/COc1cc(N)nc(N)n1)OCOC(=O)C(C)(C)C , what is its reported CC50 at 24 h?
5.1
